Target: Human GPR119 (Homo sapiens, UniProt Q8TDV5)
Construct: host or cells: HEK293 (ATCC)
Sequence (Q8TDV5 1-335): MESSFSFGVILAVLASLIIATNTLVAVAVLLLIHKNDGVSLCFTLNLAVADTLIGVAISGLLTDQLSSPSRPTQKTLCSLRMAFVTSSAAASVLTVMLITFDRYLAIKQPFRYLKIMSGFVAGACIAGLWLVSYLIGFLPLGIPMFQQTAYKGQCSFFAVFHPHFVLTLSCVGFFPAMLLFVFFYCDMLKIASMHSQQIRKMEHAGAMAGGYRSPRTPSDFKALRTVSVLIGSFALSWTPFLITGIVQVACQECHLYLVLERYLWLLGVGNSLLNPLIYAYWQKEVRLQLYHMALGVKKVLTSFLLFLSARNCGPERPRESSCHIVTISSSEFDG
Assay: Human GPR119 activation assay (cAMP, HTRF)
Type: cell-based
Details: 1 h; 10 nM; HEK293 cells transiently expressing human GPR119; relative to maximum effect of OEA; read-out: hGPR119 activation ability (cAMP assay) Relative Response % vs OEA
# Emax at 0.01 µM values compiled below
readout_kind: Emax at 0.01 µM

molecular_string=CC(C)c1nnc(-c2c(F)cc(OCCCC3CCN(c4ccc(C(F)(F)F)cn4)CC3)cc2F)s1 experimental_target="Human GPR119 (Homo sapiens, UniProt Q8TDV5)" result=189%
molecular_string=CC(C)Cc1nc(-c2cnc(N3CCC(CCCOc4cc(F)c(-c5noc(C(C)(C)CO)n5)c(F)c4)CC3)nc2)no1 experimental_target="Human GPR119 (Homo sapiens, UniProt Q8TDV5)" result=174%
molecular_string=CC(C)c1nc(N2CCC(CCCOc3cc(F)c(-c4nnc(C(C)C)o4)c(F)c3)CC2)no1 experimental_target="Human GPR119 (Homo sapiens, UniProt Q8TDV5)" result=329%
molecular_string=CCc1nnc(-c2c(F)cc(OCCCC3CCN(c4nc(C(C)C)no4)CC3)cc2F)o1 experimental_target="Human GPR119 (Homo sapiens, UniProt Q8TDV5)" result=373%
molecular_string=CCc1cnc(N2CCC(CCCOc3cc(F)c(-c4nc(CC)cs4)c(F)c3)CC2)nc1 experimental_target="Human GPR119 (Homo sapiens, UniProt Q8TDV5)" result=120%
molecular_string=CCc1cnc(N2CCC(CCCOc3cc(F)c(C4=N[C@H](C)CO4)c(F)c3)CC2)nc1 experimental_target="Human GPR119 (Homo sapiens, UniProt Q8TDV5)" result=113%
molecular_string=CCc1cnc(N2CCC(CCCOc3cc(F)c(-c4noc(C(C)(C)C)n4)c(F)c3)CC2)nc1 experimental_target="Human GPR119 (Homo sapiens, UniProt Q8TDV5)" result=321%
molecular_string=CCc1cnc(N2CCC(CCCOc3cc(F)c(-c4nnc(CC)o4)c(F)c3)CC2)nc1 experimental_target="Human GPR119 (Homo sapiens, UniProt Q8TDV5)" result=538%
molecular_string=CCc1nnc(-c2c(F)cc(OCCCC3CCN(c4ncc(C(F)(F)F)cn4)CC3)cc2F)o1 experimental_target="Human GPR119 (Homo sapiens, UniProt Q8TDV5)" result=218%
molecular_string=CCCc1nc(-c2c(F)cc(OCCCC3CCN(c4ncc(CC)cn4)CC3)cc2F)no1 experimental_target="Human GPR119 (Homo sapiens, UniProt Q8TDV5)" result=131%
molecular_string=CCc1cnc(N2CCC(CCCOc3cc(F)c(C4=NC[C@H](C)O4)c(F)c3)CC2)nc1 experimental_target="Human GPR119 (Homo sapiens, UniProt Q8TDV5)" result=167%
molecular_string=Cc1nc(-c2c(F)cc(OCCCC3CCN(c4ncc(-c5noc(CC(C)C)n5)cn4)CC3)cc2F)no1 experimental_target="Human GPR119 (Homo sapiens, UniProt Q8TDV5)" result=172%
molecular_string=CCc1cnc(N2CCC(CCCOc3cc(F)c(-c4nnc(C(C)C)o4)c(F)c3)CC2)nc1 experimental_target="Human GPR119 (Homo sapiens, UniProt Q8TDV5)" result=830%
molecular_string=CCc1cnc(N2CCC(CCCOc3cc(F)c(-c4nnc(NC(C)C)o4)c(F)c3)CC2)nc1 experimental_target="Human GPR119 (Homo sapiens, UniProt Q8TDV5)" result=330%
molecular_string=CC(C)Cc1nc(-c2cnc(N3CCC(CCCOc4cc(F)c(C5=NC[C@@H](C)O5)c(F)c4)CC3)nc2)no1 experimental_target="Human GPR119 (Homo sapiens, UniProt Q8TDV5)" result=241%
molecular_string=Cc1nnc(-c2c(F)cc(OCCCC3CCN(c4nc(C(C)C)no4)CC3)cc2F)o1 experimental_target="Human GPR119 (Homo sapiens, UniProt Q8TDV5)" result=266%
molecular_string=Cc1nnc(-c2c(F)cc(OCCCC3CCN(c4ncc(C(F)(F)F)cn4)CC3)cc2F)o1 experimental_target="Human GPR119 (Homo sapiens, UniProt Q8TDV5)" result=239%
molecular_string=CCc1cnc(N2CCC(CCCOc3cc(F)c(-c4noc([C@@H](O)CC)n4)c(F)c3)CC2)nc1 experimental_target="Human GPR119 (Homo sapiens, UniProt Q8TDV5)" result=313%
molecular_string=CC(C)Oc1cnc(N2CCC(CCCOc3cc(F)c(-c4noc(C(C)C)n4)c(F)c3)CC2)nc1 experimental_target="Human GPR119 (Homo sapiens, UniProt Q8TDV5)" result=123%
molecular_string=CCc1cnc(N2CCC(CCCOc3cc(F)c(C4=N[C@@H](C)CO4)c(F)c3)CC2)nc1 experimental_target="Human GPR119 (Homo sapiens, UniProt Q8TDV5)" result=47.8%
molecular_string=CCc1cnc(N2CCC(CCCOc3cc(F)c(C4=NCC(C)(C)O4)c(F)c3)CC2)nc1 experimental_target="Human GPR119 (Homo sapiens, UniProt Q8TDV5)" result=102%
